Values were extracted from paper PMC1389615.

test.target: CNGA1 (Bos taurus, UniProt Q00194, R342D)
experiment.description: inside-out patch clamp, block of cGMP-activated current, Hill fit

- chemical.structure: "Cc1cc(N)c2ccccc2[n+]1CCCCCCCCCC[n+]1c(C)cc(N)c2ccccc21"
  IC50 / nM: 123

====

test.target: CNGA1 (Bos taurus)
Sequence (Q00194 1-690): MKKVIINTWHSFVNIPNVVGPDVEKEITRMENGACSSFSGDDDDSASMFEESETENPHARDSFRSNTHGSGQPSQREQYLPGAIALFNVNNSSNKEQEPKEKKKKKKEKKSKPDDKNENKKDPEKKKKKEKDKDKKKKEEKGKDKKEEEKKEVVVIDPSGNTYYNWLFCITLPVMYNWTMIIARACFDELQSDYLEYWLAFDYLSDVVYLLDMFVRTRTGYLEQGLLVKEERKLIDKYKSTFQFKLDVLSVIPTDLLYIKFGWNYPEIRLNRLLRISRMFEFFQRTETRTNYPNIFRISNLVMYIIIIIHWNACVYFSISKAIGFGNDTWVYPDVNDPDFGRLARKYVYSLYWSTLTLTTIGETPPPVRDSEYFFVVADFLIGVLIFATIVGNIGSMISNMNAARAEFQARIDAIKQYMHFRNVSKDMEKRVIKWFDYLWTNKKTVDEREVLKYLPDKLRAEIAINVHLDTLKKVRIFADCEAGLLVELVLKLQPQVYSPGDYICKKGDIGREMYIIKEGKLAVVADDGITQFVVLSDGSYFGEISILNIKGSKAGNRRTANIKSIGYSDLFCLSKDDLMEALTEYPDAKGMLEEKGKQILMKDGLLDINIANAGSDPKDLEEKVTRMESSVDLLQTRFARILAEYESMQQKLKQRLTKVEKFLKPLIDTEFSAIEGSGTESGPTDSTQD
experiment.description: inside-out patch clamp, block of cGMP-activated current, Hill fit
Assay type: cell-based
pIC50: −log10 of the molar value.
observable: pIC50

- molecule: "Cc1cc(N)c2ccccc2[n+]1CCCCCCCCCC[n+]1c(C)cc(N)c2ccccc21 [dequalinium]"
  observable: "pIC50"
  quantitative.result: 6.72
